// reported growth for each item listed
- Test system: SNB-19 CNS
- experiment-summary: NCI-60 one-dose screen, 48 h (100 = growth as untreated, 0 = no growth, -100 = all killed)
- assay-setup: 10 µM unless noted
The panel holds about 83,000 compounds, 20% with a hit somewhere; the sample as a whole holds those more often.
assay-endpoint: growth (%)

1. CCOC(=O)C1=C(NC)OCC1=O | 109
2. CC1Cc2c(Cl)ncnc2N(C)c2ccc(F)cc21 (centres undefined) | 104
3. O=C1Nc2ccccc2/C1=C\c1nc(-c2ccccc2)n2ccccc12 | 103
4. COc1cc(CNS(=O)(=O)c2ccc(C)cc2)ccc1OCc1cn(-c2ccc(F)cc2)nn1 | 102
